Hey, just so you know, these numbers are from the RNAGym collection of RNA variant scans (doi:10.7554/elife.90254).

B1: LINE1-full (parent)
chain: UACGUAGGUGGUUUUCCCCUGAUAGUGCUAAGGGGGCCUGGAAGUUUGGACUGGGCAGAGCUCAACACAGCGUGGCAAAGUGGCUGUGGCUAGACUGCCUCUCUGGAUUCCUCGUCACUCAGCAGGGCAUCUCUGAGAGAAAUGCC

variants of: B1; experiment: self-cleavage, relative activity (ratio to wild type); higher = more cleavage; in vitro, sequencing; the parent is a self-cleaving ribozyme
test-readout: self-cleavage
Answers are plain numbers.

For orientation, consider the following solved cases.
{"mutation-name": "U12A U143C", "test-readout": "self-cleavage", "quantitative-readout": 1.14}
{"mutation-name": "A43G U130C", "test-readout": "self-cleavage", "quantitative-readout": 1.2}
{"mutation-name": "A94G A107G", "test-readout": "self-cleavage", "quantitative-readout": 0.51}
{"mutation-name": "U9C U15A", "test-readout": "self-cleavage", "quantitative-readout": 0.5}
{"mutation-name": "A22U G34A", "test-readout": "self-cleavage", "quantitative-readout": 0.82}

# batch size: 4; output self-cleavage per entry
1. G33C U96A
2. U52G A67G
3. A57G A79C
4. U46C U132A

-- reply
1: 0.05; 2: 0.64; 3: 0.8; 4: 2.44

# batch size: 6; output self-cleavage per entry
1. G58U G137U
2. U52C A136G
3. A42G C128U
4. U15A U109A
5. U45A A77G
6. U23C U46A

-- reply
1. 0.03
2. 2.9
3. 1.28
4. 0.47
5. 1.56
6. 0.92

# batch size: 7; output self-cleavage per entry
1. U5C A22G
2. A69U C116A
3. U39C U85G
4. U104A A142G
5. G122C
6. A69C G88A
7. U39C A121C

-- reply
1: 0.57; 2: 0.05; 3: 0.04; 4: 1.43; 5: 1.5; 6: 0.01; 7: 1.37

# batch size: 7; output self-cleavage per entry
1. G33A A57G
2. G35A U130C
3. A22G G54A
4. U134A U143C
5. A43G A69G
6. G34A G70A
7. C37G A65G

-- reply
[0.56, 0.96, 0.75, 0.63, 0.58, 0.11, 0]
